experimental_target: CaBzz1-D2
assay_name: SPOT peptide array binding signal intensity (averaged, normalized) (arbitrary units (background-subtracted, floor 0; scale differs between SH3 domains)); higher = stronger binding of the SH3 domain to the peptide
Respond with True for SPOT peptide array binding signal intensity values of 100 and above, False for values below.

The following binders have reported results that may help.
{"binder": "HAPPLPPTAPPPPSL", "label_class": "False"}
{"binder": "NVLRKILEIPLHSFS", "label_class": "False"}
{"binder": "LFMKGTPEFPKSGFS", "label_class": "False"}

Challenge: hey, is SPOT peptide array binding signal intensity for this one >= 100? AATTSTPPLPRRRAT
Response given: True

Challenge: hey, is SPOT peptide array binding signal intensity for this one >= 100? FLIKFTPKFPQSIDH
Response given: True

Challenge: hey, is SPOT peptide array binding signal intensity for this one >= 100? YRRKSIPFAPHQITA
Response given: True

Challenge: hey, is SPOT peptide array binding signal intensity for this one >= 100? PSTMDFPKLPSFQNS
Response given: False

Challenge: hey, is SPOT peptide array binding signal intensity for this one >= 100? SHRLWLYAAPKRPKT
Response given: False

Challenge: hey, is SPOT peptide array binding signal intensity for this one >= 100? KKAPPPVVKPKPRNF
Response given: True

Challenge: hey, is SPOT peptide array binding signal intensity for this one >= 100? DRIRMFIRFPKFLLE
Response given: False

Challenge: hey, is SPOT peptide array binding signal intensity for this one >= 100? NSMRPPLLIPAATTK
Response given: True

Every entry's value here was drawn from the supplement of paper PMC4466140.
